Please provide measured pIC50 for the entries that follow.
Test: Antiproliferative activity against human alpha-2 cells after 48 hrs by MTT assay
Assay type: functional, cell-based
Numbers only, as −log10 of the molar value.

Some entries whose results are on file:
INSERT INTO results (entry_smiles, endpoint_label, experimental_value) VALUES
  ('CC(C)(O)CCC[C@@](C)(O)[C@H]1CC[C@]2(C)[C@@H]1[C@H](O)C[C@@H]1[C@@]3(C)CC[C@H](OC(=O)[C@H](CO)NC(=O)OC(C)(C)C)C(C)(C)[C@@H]3CC[C@]12C', 'pIC50', 4.62),
  ('CC(C)C[C@H](N)C(=O)O[C@H]1CC[C@]2(C)[C@H]3C[C@@H](O)[C@@H]4[C@@H]([C@](C)(O)CCCC(C)(C)O)CC[C@@]4(C)[C@]3(C)CC[C@H]2C1(C)C', 'pIC50', 4.80);

Given the compound "CC[C@H](C)[C@H](NC(=O)OC(C)(C)C)C(=O)O[C@H]1CC[C@]2(C)[C@H]3C[C@@H](O)[C@@H]4[C@@H]([C@](C)(O)CCCC(C)(C)O)CC[C@@]4(C)[C@]3(C)CC[C@H]2C1(C)C" , what is its reported pIC50? 4.44
